Target: human DGKζ (Homo sapiens, UniProt Q13574)
Construct: made in house; host or cells: Sf9 insect cells, baculovirus
Sequence (Q13574 with tags, fused parts or gaps): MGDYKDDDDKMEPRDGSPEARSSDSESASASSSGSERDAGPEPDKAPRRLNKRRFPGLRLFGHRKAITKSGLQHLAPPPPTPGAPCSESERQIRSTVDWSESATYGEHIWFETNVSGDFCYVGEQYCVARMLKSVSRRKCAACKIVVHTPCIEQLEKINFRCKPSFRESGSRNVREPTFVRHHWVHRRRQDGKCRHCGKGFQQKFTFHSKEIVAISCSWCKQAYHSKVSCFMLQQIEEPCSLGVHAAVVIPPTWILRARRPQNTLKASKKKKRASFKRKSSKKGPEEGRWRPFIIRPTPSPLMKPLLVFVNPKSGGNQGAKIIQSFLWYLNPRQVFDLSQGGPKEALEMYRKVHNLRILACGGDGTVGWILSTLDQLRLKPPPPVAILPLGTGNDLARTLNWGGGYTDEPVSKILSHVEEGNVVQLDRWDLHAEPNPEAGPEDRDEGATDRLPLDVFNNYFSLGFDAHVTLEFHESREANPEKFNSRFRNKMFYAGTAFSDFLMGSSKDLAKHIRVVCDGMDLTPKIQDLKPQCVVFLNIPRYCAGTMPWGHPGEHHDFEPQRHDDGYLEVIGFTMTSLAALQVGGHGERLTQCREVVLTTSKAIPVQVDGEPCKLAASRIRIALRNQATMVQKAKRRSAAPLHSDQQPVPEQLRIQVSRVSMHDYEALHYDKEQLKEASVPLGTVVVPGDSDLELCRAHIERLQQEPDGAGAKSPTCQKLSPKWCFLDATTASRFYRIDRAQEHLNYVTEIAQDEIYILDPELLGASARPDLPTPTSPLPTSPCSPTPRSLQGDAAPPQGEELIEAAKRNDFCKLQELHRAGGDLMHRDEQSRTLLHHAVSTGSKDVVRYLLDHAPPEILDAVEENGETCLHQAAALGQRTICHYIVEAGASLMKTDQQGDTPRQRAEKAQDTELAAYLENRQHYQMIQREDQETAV
Assay: Human DGKζ kinase activity inhibition assay (ADP-Glo)
Assay type: biochemical
Settings: example compounds; recombinant full-length human DGKζ, 1,2-dioleoyl-sn-glycerol 7 μM, ATP 55 μM, 20 min at 22° C.; read-out: IC50 values of examples in in vitro human DGKζ kinase activity inhibition assays
// reported IC50 per item

Some compounds with known IC50 results, for comparison:
# Compound, System under test, IC50
records = [
    ("COc1ccc(-c2cc(C(=O)c3sc(N(c4ccc(F)cc4)C(C)C(N)=O)nc3N)on2)cn1 (racemic)", "human DGKζ (Homo sapiens, UniProt Q13574)", "96 nM"),
    ("CC(C(N)=O)N(c1ccc(F)cc1)c1nc(N)c(C(=O)c2cc(C(=O)N[C@@H]3C[C@@H]3F)no2)s1 (mixture of isomers)", "human DGKζ (Homo sapiens, UniProt Q13574)", "2360 nM"),
    ("C[C@H](C(N)=O)N(c1ccc(F)cc1)c1nc(N)c(C(=O)c2cc(-c3ccccc3)no2)s1", "human DGKζ (Homo sapiens, UniProt Q13574)", "61 nM"),
    ("CC(C(N)=O)N(c1ccc(F)cc1)c1nc(N)c(C(=O)c2cc(CNC3CCCC3)no2)s1 (racemic)", "human DGKζ (Homo sapiens, UniProt Q13574)", "194 nM"),
    ("CC(C(N)=O)N(c1ccc(F)c(F)c1)c1nc(N)c(C(=O)c2cc(C(=O)NC3CC(F)(F)C3)no2)s1 (racemic) [Example 45]", "human DGKζ (Homo sapiens, UniProt Q13574)", "53 nM"),
]

Using the record for CC(C(N)=O)N(c1ccc(F)cc1)c1nc(N)c(C(=O)c2cc(C(=O)Nc3ccccc3)no2)s1 (racemic) , state its measured IC50.
23 nM

Name the recorded IC50 of the compound listed here: CC(C(N)=O)N(c1ccc(F)cc1)c1nc(N)c(C(=O)c2cc(C(=O)NC3CCC(F)(F)C3)no2)s1 (racemic)
48 nM

---

Target: human DGKζ (Homo sapiens, UniProt Q13574)
Construct: made in house; host or cells: Sf9 insect cells, baculovirus
Test: Human DGKζ kinase activity inhibition assay (ADP-Glo)
Format: biochemical
Details: example compounds; recombinant full-length human DGKζ, 1,2-dioleoyl-sn-glycerol 7 μM, ATP 55 μM, 20 min at 22° C.; read-out: IC50 values of examples in in vitro human DGKζ kinase activity inhibition assays
Description: Human diacylglycerol kinase zeta (DGKζ) inhibitory activity of compounds of the present invention was quantified employing the human DGKζ kinase activity assay as described in the following paragraphs. In essence, the enzyme activity was measured by quantification of the adenosine-di-phosphate (ADP) generated as a co-product of the enzyme reaction via the “ADP-Glo™ Kinase Assay” kit from the company Promega. […]
Value type: IC50 (nM)
Numeric answer only, unit nM assumed.

# Compound, IC50 [nM]
measured = [
    ("CC(C(N)=O)N(c1ccc(F)cc1)c1nc(N)c(C(=O)c2cc(C(=O)N[C@H]3C[C@@H](F)C3)no2)s1 (mixture of isomers)", 344),
    ("CC(C(N)=O)N(c1ccc(F)cc1)c1nc(N)c(C(=O)c2nc(C3CCCC3)no2)s1 (racemic)", 12),
    ("CC(C(N)=O)N(c1ccc(F)cc1)c1nc(N)c(C(=O)c2cc(CN(C)C3CCCC3)no2)s1 (racemic)", 58),
]

Return IC50 for the following compound: CC(C(N)=O)N(c1ccc(F)cc1)c1nc(N)c(C(=O)c2nc(-c3ccccc3)no2)s1 (racemic)
17
